Study target: L-lactate dehydrogenase (Plasmodium falciparum (isolate CDC / Honduras))
Assay explanation: PfLDH activity inhibition – cell lysate, 3D7 strain, counter-screen for P. falciparum growth inhibition project (AID 2304);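 note: 0% = vehicle and 100% = reference inhibitor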
Cond: P. falciparum 3D7 crude extract, LDH APAD/NBT absorbance; at 2 µM; active compounds read high
Active and inactive are the calls of the source. The rule behind the calls is not given here.
Property: inhibition

Molecule: COc1ccc2nccc([C@@H](O)CN3CCC(NCc4cc5ccccc5s4)CC3)c2c1
Property: inhibition
Result: 3% (inactive)

Look up and state reported inhibition for COc1ccc(C(C(=O)NC2CCN(C[C@H](O)c3ccnc4ccc(OC)cc34)CC2)N2CCN(c3ccc(Cl)c(Cl)c3)CC2)cc1 (some centres undefined) 2% (inactive)

Tell me its inhibition given O=c1cc(NCCCNCc2cccc(Oc3ccccc3)c2)[nH]c2ccccc12 as the entry. -1% (inactive)

Source of measurements: PubChem BioAssay
